# TARGET_OR_TEST_SYSTEM: UniProt:O60240
# PROTOCOL_NOTES: inhibitors of ABHD5-PLIN1 binding, dose response, counter-screen for ABHD5-PLIN5 interaction inhibitor project, biochemical, luminescence (AID 651672);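 note: split Gaussia luciferase complementation between ABHD5 and PLIN1 fusion fragments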
Active and inactive are the calls of the source. The rule behind the calls is not given here.
The reply should name one outcome from YES (active), NO (inactive)

Use the examples below as a reference point.
Short answer needed: outcome of this test for CN(C)CCCN(C(=O)CCc1ccccc1)c1nc2ccc(Cl)cc2s1 ?
YES

Short answer needed: outcome of this test for CC(C)(C)NC(=O)C(c1ccncc1)n1c(=O)c(-c2ccco2)nc2ccccc21 (centres undefined) ?
YES

Short answer needed: outcome of this test for COc1ccc(OCc2cn(CC(=O)c3ccc(O)cc3)nn2)cc1 ?
YES

Short answer needed: outcome of this test for CC(=O)Oc1ccc(C23c4ccccc4C2(OC(C)=O)c2cc(OC(C)=O)ccc23)cc1 (centres undefined) ?
YES

Short answer needed: outcome of this test for COc1ccc(NC(=O)C(c2ccc(OC)cc2)n2c(=O)c(-c3ccco3)nc3ccccc32)cc1 (centres undefined) ?
YES

Short answer needed: outcome of this test for CCC(c1nc2ccccc2[nH]1)n1c(=O)c(-c2ccco2)nc2ccccc21 (centres undefined) ?
YES

New cases:
Short answer needed: outcome of this test for CCCCC(=O)NC(c1cccc([N+](=O)[O-])c1)c1ccc2cccnc2c1O (centres undefined) ?
NO

Short answer needed: outcome of this test for COc1ccc(NC(=O)c2cc3ccccc3cc2O)cc1 ?
NO

Short answer needed: outcome of this test for Cc1ccc(S(=O)(=O)N2C[C@H]3n4c(=O)ccc(=O)n4C[C@H](OC(=O)Nc4cccs4)[C@@]3(O)C2)cc1 ?
YES

Short answer needed: outcome of this test for CC1=CC(C)(C)Nc2ccc(OC(=O)CN3C(=O)CCC3=O)cc21 ?
YES

Short answer needed: outcome of this test for CCCC(=O)NC(c1cccc([N+](=O)[O-])c1)c1ccc2cccnc2c1O (centres undefined) ?
NO

* * *

# TARGET_OR_TEST_SYSTEM: Perilipin-1 (Homo sapiens) (UniProt O60240)
# Sequence (O60240 whole entry, looked up, the tested form may be a part): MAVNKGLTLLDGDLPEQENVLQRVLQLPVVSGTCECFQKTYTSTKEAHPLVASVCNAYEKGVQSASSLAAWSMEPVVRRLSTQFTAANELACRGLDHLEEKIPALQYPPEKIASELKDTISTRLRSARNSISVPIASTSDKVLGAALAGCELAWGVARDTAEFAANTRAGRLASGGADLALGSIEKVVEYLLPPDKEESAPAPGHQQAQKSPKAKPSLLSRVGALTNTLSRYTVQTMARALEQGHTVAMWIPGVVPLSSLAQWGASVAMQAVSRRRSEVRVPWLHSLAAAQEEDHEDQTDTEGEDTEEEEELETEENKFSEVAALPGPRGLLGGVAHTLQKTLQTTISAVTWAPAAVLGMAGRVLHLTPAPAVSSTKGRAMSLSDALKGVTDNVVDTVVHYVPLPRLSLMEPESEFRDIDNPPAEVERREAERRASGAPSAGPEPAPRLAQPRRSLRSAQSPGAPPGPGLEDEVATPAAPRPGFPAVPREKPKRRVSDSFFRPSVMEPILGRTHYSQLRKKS
# PROTOCOL_NOTES: inhibitors of ABHD5-PLIN1 binding, dose response, counter-screen for ABHD5-PLIN5 interaction inhibitor project, biochemical, luminescence (AID 651672);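 note: split Gaussia luciferase complementation between ABHD5 and PLIN1 fusion fragments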
QUANTITY: IC50

Look over these answered cases.
Which value of IC50 has been reported for CCSc1ccc2c(c1)N(CCCN1CCN(C)CC1)c1ccccc1S2 in the records?
6.35 µM

Which value of IC50 has been reported for CCOc1cc(/C=C2\CCC/C(=C\c3cc(Cl)c(O)c(OCC)c3)C2=O)cc(Cl)c1O in the records?
3.88 µM

Which value of IC50 has been reported for CC(c1nc2ccccc2[nH]1)n1c(=O)c(-c2ccco2)nc2ccccc21 (stereo unspecified) in the records?
3.37 µM

Which value of IC50 has been reported for CCOC1=CC2=C(C(=O)C(Cl)=CC2=O)[C@@H]2CN(S(=O)(=O)c3ccc(C)cc3)[C@@H](c3ccccc3)[C@H]12 in the records?
1.35 µM

Which value of IC50 has been reported for COCCN(CCOC)c1nc(N)c2c(N)nc3c(c2c1C#N)CC(=O)N3Cc1ccc(Cl)cc1 in the records?
6.57 µM

Which value of IC50 has been reported for O=C1NC(=S)NC(=O)C12C(c1ccccc1)NC(=S)NC2c1ccccc1 (stereo unspecified) in the records?
4.34 µM

Which value of IC50 has been reported for Cc1ccc(CS(=O)(=O)c2ncc(Cl)c(C(=O)Nc3nnc(C(C)C)s3)n2)cc1 in the records?
1.71 µM

Which value of IC50 has been reported for O=CC1=C(c2ccccc2)Oc2ccccc2O1 in the records?
2.57 µM

New cases:
Which value of IC50 has been reported for CSC(=Nc1ccccc1)N=C(SCc1ccccc1)N(C)C in the records?
1.18 µM

Which value of IC50 has been reported for Cc1ccc(C(=O)/C=C/c2cc(Br)cc(Br)c2O)o1 in the records?
5.75 µM

Which value of IC50 has been reported for CCCCCNC(=O)C(c1cccc2ccccc12)n1c(=O)c(-c2ccco2)nc2ccccc21 (stereo unspecified) in the records?
2.01 µM

Which value of IC50 has been reported for O=C1/C(=C/c2cccnc2)CC/C1=C\c1cccnc1 in the records?
5.83 µM

Which value of IC50 has been reported for CC(C)(C)NC(=O)C(C1CC1)n1c(=O)c(-c2ccco2)nc2ccccc21 (stereo unspecified) in the records?
4.21 µM

Which value of IC50 has been reported for Cc1ccc(/C=C/C(=O)c2cc(Br)ccc2OC(=O)c2ccco2)cc1 in the records?
0.684 µM

Which value of IC50 has been reported for CCOc1cc(N)c(Cl)cc1C(=O)NCC1CN(Cc2ccc(F)cc2)CCO1 (stereo unspecified) in the records?
1.97 µM

Which value of IC50 has been reported for CCCCCNC(=O)C(C1CC1)n1c(=O)c(-c2ccco2)nc2ccccc21 (stereo unspecified) in the records?
6.58 µM

Which value of IC50 has been reported for COc1ccc(/C=C\C(=O)CC(O)(c2ccccc2)C(F)(F)F)cc1 (stereo unspecified) in the records?
2.68 µM

Which value of IC50 has been reported for Oc1c(C(c2ccccc2)N2CCCCC2)ccc2ccccc12 (stereo unspecified) in the records?
1.01 µM

Which value of IC50 has been reported for O=c1nc(/C=C/c2ccc(Cl)cc2Cl)cc(C(F)(F)F)[nH]1 in the records?
2.94 µM

Which value of IC50 has been reported for CCOC(=O)c1c(NC(=O)/C=C/C(=O)O)sc(C)c1-c1ccc(C(C)(C)C)cc1 in the records?
4.81 µM
